SYSTEM_NAME: T1, full-length human Regnase-1 with a FLAG tag on the N-terminal side and a biotin ligase BirA recognition … (human, UniProt Q5D1E8 1-599, biotinylated at the BirA recognition sequence when required)
T1 sequence: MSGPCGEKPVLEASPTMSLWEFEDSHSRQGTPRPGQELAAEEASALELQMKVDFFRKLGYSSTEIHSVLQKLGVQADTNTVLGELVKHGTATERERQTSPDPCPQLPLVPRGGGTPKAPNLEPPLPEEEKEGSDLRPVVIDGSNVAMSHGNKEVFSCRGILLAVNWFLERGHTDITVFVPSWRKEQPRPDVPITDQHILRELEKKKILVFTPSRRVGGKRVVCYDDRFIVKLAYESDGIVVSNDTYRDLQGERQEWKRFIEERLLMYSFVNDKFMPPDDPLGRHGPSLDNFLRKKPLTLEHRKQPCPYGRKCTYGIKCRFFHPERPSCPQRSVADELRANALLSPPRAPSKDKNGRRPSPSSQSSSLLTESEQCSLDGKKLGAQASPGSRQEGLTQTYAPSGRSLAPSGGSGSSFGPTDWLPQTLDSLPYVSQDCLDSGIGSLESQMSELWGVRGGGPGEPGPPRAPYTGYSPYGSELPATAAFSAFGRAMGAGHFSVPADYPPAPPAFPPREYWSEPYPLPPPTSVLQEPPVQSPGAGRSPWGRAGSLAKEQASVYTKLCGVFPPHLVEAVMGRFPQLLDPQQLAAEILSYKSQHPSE
METHOD_SUMMARY: cell-based or functional assay
Positions of bridges follow the written chain, without caps; N, C: chain ends. Non-standard residues stand in square brackets, D forms with d. *: point of attachment. Pyrrolidide = C1CCN(*)C1; dNMeA = CN[C@H](C)C(=O)O
Measured 50% inhibition concentration, Regnase-1 phosphorylation by TBK1 (AlphaScreen) of individual entries
OBSERVATION_TYPE: 50% inhibition concentration, Regnase-1 phosphorylation by TBK1 (AlphaScreen) (µM)

BINDER: XPNSSWFKIWD (HELM PEPTIDE1{[C[C@H](C(=O)[*:2])N(C)[*:1]].P.N.S.S.W.F.K.I.W.D.[C1CCN([*:1])C1]}$PEPTIDE1,PEPTIDE1,1:R1-11:R3$$$V2.0; SMILES CC[C@H](C)[C@@H]1NC(=O)[C@H](CCCCN)NC(=O)[C@H](Cc2ccccc2)NC(=O)[C@H](Cc2c[nH]c3ccccc23)NC(=O)[C@H](CO)NC(=O)[C@H](CO)NC(=O)[C@H](CC(N)=O)NC(=O)[C@@H]2CCCN2C(=O)[C@@H](C)N(C)C(=O)C[C@@H](C(=O)N2CCCC2)NC(=O)[C@H](Cc2c[nH]c3ccccc23)NC1=O) [PP6]
U: µM
RECORDED_RESULT: 13.1
--
BINDER: XTSWYKVNWGQD (HELM PEPTIDE1{[meA].T.S.W.Y.K.V.N.W.G.Q.D.[C1CCN([*:1])C1]}$PEPTIDE1,PEPTIDE1,1:R1-12:R3$$$V2.0; SMILES CC(C)[C@@H]1NC(=O)[C@H](CCCCN)NC(=O)[C@H](Cc2ccc(O)cc2)NC(=O)[C@H](Cc2c[nH]c3ccccc23)NC(=O)[C@H](CO)NC(=O)[C@H]([C@@H](C)O)NC(=O)[C@H](C)N(C)C(=O)C[C@@H](C(=O)N2CCCC2)NC(=O)[C@H](CCC(N)=O)NC(=O)CNC(=O)[C@H](Cc2c[nH]c3ccccc23)NC(=O)[C@H](CC(N)=O)NC1=O) [PP1]
U: µM
RECORDED_RESULT: 54.5
--
BINDER: XHSNAWYNIWD (HELM PEPTIDE1{[meA].H.S.N.A.W.Y.N.I.W.D.[C1CCN([*:1])C1]}$PEPTIDE1,PEPTIDE1,1:R1-11:R3$$$V2.0; SMILES CC[C@H](C)[C@@H]1NC(=O)[C@H](CC(N)=O)NC(=O)[C@H](Cc2ccc(O)cc2)NC(=O)[C@H](Cc2c[nH]c3ccccc23)NC(=O)[C@H](C)NC(=O)[C@H](CC(N)=O)NC(=O)[C@H](CO)NC(=O)[C@H](Cc2c[nH]cn2)NC(=O)[C@H](C)N(C)C(=O)C[C@@H](C(=O)N2CCCC2)NC(=O)[C@H](Cc2c[nH]c3ccccc23)NC1=O) [PP5]
U: µM
RECORDED_RESULT: 24.2
--
BINDER: [dNMeA]KHASAWYRIWD-Pyrrolidide (lactam N-12) [PP3]
U: µM
RECORDED_RESULT: 3.9
--
BINDER: XGYANSWYNIWD (HELM PEPTIDE1{[meA].G.Y.A.N.S.W.Y.N.I.W.D.[C1CCN([*:1])C1]}$PEPTIDE1,PEPTIDE1,1:R1-12:R3$$$V2.0; SMILES CC[C@H](C)[C@@H]1NC(=O)[C@H](CC(N)=O)NC(=O)[C@H](Cc2ccc(O)cc2)NC(=O)[C@H](Cc2c[nH]c3ccccc23)NC(=O)[C@H](CO)NC(=O)[C@H](CC(N)=O)NC(=O)[C@H](C)NC(=O)[C@H](Cc2ccc(O)cc2)NC(=O)CNC(=O)[C@H](C)N(C)C(=O)C[C@@H](C(=O)N2CCCC2)NC(=O)[C@H](Cc2c[nH]c3ccccc23)NC1=O) [PP2]
U: µM
RECORDED_RESULT: 21.7
